systemUnderTest: T1, mFLAG-EGF34+NRR-His6, the mouse Notch1 NRR immunogen (Notch1 V1307-Q1723) (mouse, UniProt Q01705 1307-1723)
T1 construct: the rest carries an N-terminal FLAG tag and a C-terminal His tag; also called mNotch1 NRR; murine NRR1
T1 sequence (Q01705 other isoform, or with tags, fused parts or gaps): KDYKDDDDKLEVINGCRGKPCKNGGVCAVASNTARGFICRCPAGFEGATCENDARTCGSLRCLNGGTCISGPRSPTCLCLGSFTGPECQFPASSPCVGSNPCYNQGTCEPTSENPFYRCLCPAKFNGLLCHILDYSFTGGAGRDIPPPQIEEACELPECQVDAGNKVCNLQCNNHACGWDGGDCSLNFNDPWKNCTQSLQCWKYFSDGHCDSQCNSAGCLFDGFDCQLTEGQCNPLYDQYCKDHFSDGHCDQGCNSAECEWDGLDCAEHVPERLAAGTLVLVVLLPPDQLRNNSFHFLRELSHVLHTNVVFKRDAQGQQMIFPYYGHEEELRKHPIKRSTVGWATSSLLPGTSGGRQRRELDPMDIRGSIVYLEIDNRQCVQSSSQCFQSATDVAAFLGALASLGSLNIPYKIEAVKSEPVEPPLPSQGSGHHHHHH
measurementProtocol: SPR (BIAcore-3000), IgG captured by anti-human IgG, NRR1-ECD injected 3.9-500 nM, 25 C
Method: To further characterize the binding affinity and binding kinetics of the anti-Notch1 NRR Mabs, surface plasmon resonance (SRP) measurement with a BIAcore™-3000 was used (BIAcore, Inc., Piscataway, N.J.). […] Association rates (kₒₙ) and dissociation rates (koff) were calculated using a simple one-to-one Langmuir binding model (BIAcore Evaluation Software version 3.2). The equilibrium dissociation constant (KD) was calculated as the ratio koff/kₒₙ.
quantityKind: koff (s⁻¹)
Reply with just the number (in s⁻¹).

Solved cases (2 shown):
binder	koff, s⁻¹
Antibody A (antibody, V domains shown, Tested as full-length human IgG1 (hIgG1) made in CHO cells; also called anti-Notch1 NRR Antibody A; Antibody A-hIgG1) VH: EVQLVESGGGLVQPGGSLRLSCAASGFTFSSYWIHWVRQAPGKGLEWVARINPSNGSTNYADSVKGRFTISADTSKNTAYLQMNSLRAEDTAVYYCARGSGFRWVMDYWGQGTLVTVSS VL: DIQMTQSPSSLSASVGDRVTITCRASQDVSTAVAWYQQKPDGTVKLLIYSASFLYSGVPSRFSGSGSGTDFTLTISSLQPEDFATYYCQQSYTTPPTFGQGTKVEIKR	0.021
Antibody A-2 (antibody, V domains shown, also called Antibody A-2-hIgG1) VH: EVQLVESGGGLVQPGGSLRLSCAASGFTFSSYWIHWVRQAPGKGLEWVARINPPNRSNQYADSVKGRFTISADTSKNTAYLQMNSLRAEDTAVYYCARGSGFRWVMDYWGQGTLVTVSS VL: DIQMTQSPSSLSASVGDRVTITCRASQDVSTAVAWYQQKPDGTVKLLIYSASFLYSGVPSRFSGSGSGTDFTLTISSLQPEDFATYYCQQFYTTPSTFGQGTKVEIKR	0.00034

Lookup: Please indicate koff recorded for Antibody A-1 (antibody, V domains shown, also called Antibody A-1-hIgG1) VH: EVQLVESGGGLVQPGGSLRLSCAASGFTFSSYWIHWVRQAPGKGLEWVARINPPNGSAHYADSVKGRFTISADTSKNTAYLQMNSLRAEDTAVYYCARGSGFRWVMDYWGQGTLVTVSS VL: DIQMTQSPSSLSASVGDRVTITCRASQDVSTAVAWYQQKPDGTVKLLIYSASFLYSGVPSRFSGSGSGTDFTLTISSLQPEDFATYYCQQSYTTPATFGQGTKVEIKR
Found: 0.00033

Lookup: // fetch koff given entry Antibody A-3 (antibody, V domains shown) VH: EVQLVESGGGLVQPGGSLRLSCAASGFTFSSYWIHWVRQAPGKGLEWVARINPANGSTRYADSVKGRFTISADTSKNTAYLQMNSLRAEDTAVYYCARGSGFRWVMDYWGQGTLVTVSS VL: DIQMTQSPSSLSASVGDRVTITCRASQDVSTAVAWYQQKPDGTVKLLIYSASFLYSGVPSRFSGSGSGTDFTLTISSLQPEDFATYYCQQSFSTPATFGQGTKVEIK
Found: 0.0012
